Catalogue of compounds with associated GI50
- Test system: DMS-273
- method: NCI tumour cell line growth inhibition, 48 h
Activity calls are given as the source filed them. Cut-off read from the data, not from the text of the source: active = GI50 up to about 1.1 µM and inactive = higher.
recorded endpoint: GI50

1) CC(=O)Oc1cc(OC(C)=O)c2c(=O)c3ccccc3[nH]c2c1 = 45.4 µM (inactive)
2) O=S(=O)(O)c1cc(/N=N/c2cc(S(=O)(=O)O)c3cccnc3c2O)ccc1/C=C/c1ccc(/N=N/c2cc(S(=O)(=O)O)c3cccnc3c2O)cc1S(=O)(=O)O = > 100 µM (inactive)
3) COc1cc(C)c(C)c(OC(=O)c2c(C)c(C)c(OC)c(C)c2OC)c1C = 3.94 µM (inactive)
4) COC12CCC(=O)C=C1c1ccccc1N2C(C)=O (centres undefined) = > 100 µM (inactive)

----------
- Tested on: OVCAR-3
- method: NCI tumour cell line growth inhibition, 48 h
Activity calls are given as the source filed them. No stated cut-off is given here; in the data, active = GI50 up to about 1.1 µM and inactive = higher.
recorded endpoint: GI50

1. O=C(O)c1nc(-c2ccccn2)c(-c2ccccn2)nc1C(=O)O = 2.87 µM (inactive)
2. C[C@@H](O)C(=O)N1[C@@H]2CC3CC[C@]2(CS1(=O)=O)C3(C)C = > 100 µM (inactive)
3. Sc1ccc2ccccc2c1CNCc1ccccc1 = 13.6 µM (inactive)

----------
- Tested on: OVCAR-3
- method: NCI tumour cell line growth inhibition, 48 h
The source made the active and inactive calls. No stated cut-off is given here; in the data, active = GI50 up to about 1.1 µM and inactive = higher.
Outcomes: yes for active, no for inactive

1. CC1(C)O[C@@H](CP(c2ccccc2)c2ccccc2)[C@H](CP(c2ccccc2)c2ccccc2)O1 = yes
2. Cc1ccc(O)c(-c2cc(-c3ccccc3)nc(/N=C\c3ccccc3)n2)c1 = no
3. CN(Cc1ccccc1)C(=S)S [SODIUM BENZYL(METHYL)CARBAMODITHIOATE] = no
4. CC(C)(C)c1ccc2c(c1)OP1(Oc3cccc4cccnc34)(O2)Oc2ccc(C(C)(C)C)cc2O1 = no
5. C[C@]12CC[C@H](O)CC1=CC[C@@H]1C2CC[C@]2(C)c3n[nH]nc3CC12 (stereo not given in full) = no

----------
- Tested on: SNB-78
- method: NCI tumour cell line growth inhibition, 48 h
The source made the active and inactive calls. Cut-off read from the data, not from the text of the source: active = GI50 up to about 1.1 µM and inactive = higher.
recorded endpoint: GI50

1. N#CC1(c2nc3ccccc3o2)C(=O)C(=O)N(c2ccc(Cl)c(Cl)c2)C(=O)C1=O = > 100 µM (inactive)
2. O=C(CCl)Nc1ccc(C(=O)N/N=C/c2ccc(Cl)cc2)cc1 = 3.52 µM (inactive)
3. O=C(NC(Cc1ccc(I)cc1)C(=O)O)c1cccc(Br)c1 (stereo not given) = > 100 µM (inactive)
4. Oc1cc(-c2cccs2)nc2cc3c(cc12)OCO3 = 7.36 µM (inactive)
5. Cn1c(=O)nc2n(-c3cc(C(F)(F)F)cc(C(F)(F)F)c3)c3ccccc3nc-2c1=O = > 100 µM (inactive)
6. CN(C)C(=S)/N=c1\ssc(=S)n1Cc1cccs1 = 6.68 µM (inactive)
7. NCCNCc1c2ccccc2c(CNCCN)c2ccccc12 = 12.7 µM (inactive)
8. COc1ccc2c3c(c(C(=O)O)oc13)C(CCC(=O)O)CC2 (stereo not given) = > 100 µM (inactive)
9. CCOC(=O)N[C@@H]1C2CC(=O)C(O2)[C@@H]1OC (stereo not given in full) = > 100 µM (inactive)
10. COc1cc(C2c3cc4c(cc3[C@@H](OCCN(C)C)C3COC(=O)[C@H]23)OCO4)cc(OC)c1O (stereo not given in full) = 5.13 µM (inactive)

Every entry's value here was drawn from ChEMBL document CHEMBL1201862.
